- settings: 10 μM; Heat-inactivated s9
measured-metric: Percentage of Initial Parent Administration (Mean ± Std Dev): parent compound

{"compound": "CC(C)(C)c1ccc(OP(=O)(Oc2ccccc2)Oc2ccccc2)cc1 [4tBPDPP, 4-tert-butylphenyl diphenyl phosphate]", "assay-value": "79 ± 11%"}

# input Tell me its Percentage of Initial Parent Administration (Mean ± Std Dev): parent compound given CC(C)c1ccccc1OP(=O)(Oc1ccccc1)Oc1ccccc1 [2IPPDPP, 2-isopropylphenyl diphenyl phosphate] as the entry.
# output 103 ± 11%

# input Tell me its Percentage of Initial Parent Administration (Mean ± Std Dev): parent compound given CC(C)c1ccc(OP(=O)(Oc2ccccc2)Oc2ccccc2)cc1 [4IPPDPP, 4-isopropylphenyl diphenyl phosphate] as the entry.
# output 97 ± 10%

# input Tell me its Percentage of Initial Parent Administration (Mean ± Std Dev): parent compound given O=P(Oc1ccccc1)(Oc1ccccc1)Oc1ccccc1 [TPHP, triphenyl phosphate, reference compound] as the entry.
# output 94 ± 1%

###

- settings: 10 μM; s9
measured-metric: Percentage of Initial Parent Administration (Mean ± Std Dev): parent compound
Reply with the number, then its unit.

Known Percentage of Initial Parent Administration (Mean ± Std Dev): parent compound results, listed for orientation:
{"molecule": "CC(C)c1ccccc1OP(=O)(Oc1ccccc1)Oc1ccccc1 [2IPPDPP, 2-isopropylphenyl diphenyl phosphate]", "assay-value": "77 ± 5%"}
{"molecule": "CC(C)(C)c1ccc(OP(=O)(Oc2ccccc2)Oc2ccccc2)cc1 [4tBPDPP, 4-tert-butylphenyl diphenyl phosphate]", "assay-value": "83 ± 2%"}
{"molecule": "O=P(Oc1ccccc1)(Oc1ccccc1)Oc1ccccc1 [TPHP, triphenyl phosphate, reference compound]", "assay-value": "68 ± 1%"}

Please find the next molecule below.
# input Tell me its Percentage of Initial Parent Administration (Mean ± Std Dev): parent compound given CC(C)c1ccc(OP(=O)(Oc2ccccc2)Oc2ccccc2)cc1 [4IPPDPP, 4-isopropylphenyl diphenyl phosphate] as the entry.
# output 55 ± 3%

###

# % Depletion listing for each entry below
- settings: 10 μM; s9 & sulfatase; after 60 min (Eq. 1)
Form entry: value (%) — number only.

{"compound": "CC(C)c1ccc(OP(=O)(Oc2ccccc2)Oc2ccccc2)cc1 [4IPPDPP, 4-isopropylphenyl diphenyl phosphate]", "value-unit": "%", "% Depletion": 46}

# input Tell me its % Depletion given CC(C)(C)c1ccc(OP(=O)(Oc2ccccc2)Oc2ccccc2)cc1 [4tBPDPP, 4-tert-butylphenyl diphenyl phosphate] as the entry.
# output 23

# input Tell me its % Depletion given CC(C)c1ccccc1OP(=O)(Oc1ccccc1)Oc1ccccc1 [2IPPDPP, 2-isopropylphenyl diphenyl phosphate] as the entry.
# output 20

# input Tell me its % Depletion given O=P(Oc1ccccc1)(Oc1ccccc1)Oc1ccccc1 [TPHP, triphenyl phosphate, reference compound] as the entry.
# output 37

###

# % Depletion listing for each entry below
- settings: 1 μM; Heat-inactivated s9; after 60 min (Eq. 1)
Form entry: value (%) — number only.

{"molecule": "CC(C)c1ccccc1OP(=O)(Oc1ccccc1)Oc1ccccc1 [2IPPDPP, 2-isopropylphenyl diphenyl phosphate]", "% Depletion [%]": 0}
{"molecule": "O=P(Oc1ccccc1)(Oc1ccccc1)Oc1ccccc1 [TPHP, triphenyl phosphate, reference compound]", "% Depletion [%]": 12}
{"molecule": "CC(C)(C)c1ccc(OP(=O)(Oc2ccccc2)Oc2ccccc2)cc1 [4tBPDPP, 4-tert-butylphenyl diphenyl phosphate]", "% Depletion [%]": 12}

Please find the next molecule below.
# input Tell me its % Depletion given CC(C)c1ccc(OP(=O)(Oc2ccccc2)Oc2ccccc2)cc1 [4IPPDPP, 4-isopropylphenyl diphenyl phosphate] as the entry.
# output 18

###

- settings: 1 μM; s9; after 60 min (Eq. 1)
measured-metric: % Depletion (%)
Form entry: value (%) — number only.

Known % Depletion results, listed for orientation:
{"compound": "CC(C)(C)c1ccc(OP(=O)(Oc2ccccc2)Oc2ccccc2)cc1 [4tBPDPP, 4-tert-butylphenyl diphenyl phosphate]", "value-unit": "%", "% Depletion": 41}
{"compound": "O=P(Oc1ccccc1)(Oc1ccccc1)Oc1ccccc1 [TPHP, triphenyl phosphate, reference compound]", "value-unit": "%", "% Depletion": 69}
{"compound": "CC(C)c1ccccc1OP(=O)(Oc1ccccc1)Oc1ccccc1 [2IPPDPP, 2-isopropylphenyl diphenyl phosphate]", "value-unit": "%", "% Depletion": 44}

Please find the next compound below.
# input Tell me its % Depletion given CC(C)c1ccc(OP(=O)(Oc2ccccc2)Oc2ccccc2)cc1 [4IPPDPP, 4-isopropylphenyl diphenyl phosphate] as the entry.
# output 73

###

# Depletion rate, slope, first-order kinetics listing for each entry below
- settings: 10 μM dose; linear regression
Form entry: value (ln[nmol]/min/mg protein) — number only.

Known Depletion rate, slope, first-order kinetics results, listed for orientation:
{"compound": "O=P(Oc1ccccc1)(Oc1ccccc1)Oc1ccccc1 [TPHP, triphenyl phosphate, reference compound]", "assay-value": "−0.0030"}
{"compound": "CC(C)c1ccccc1OP(=O)(Oc1ccccc1)Oc1ccccc1 [2IPPDPP, 2-isopropylphenyl diphenyl phosphate]", "assay-value": "−0.0048"}
{"compound": "CC(C)c1ccc(OP(=O)(Oc2ccccc2)Oc2ccccc2)cc1 [4IPPDPP, 4-isopropylphenyl diphenyl phosphate]", "assay-value": "−0.0034"}

Please find the next compound below.
# input Tell me its Depletion rate, slope, first-order kinetics given CC(C)(C)c1ccc(OP(=O)(Oc2ccccc2)Oc2ccccc2)cc1 [4tBPDPP, 4-tert-butylphenyl diphenyl phosphate] as the entry.
# output −0.0013

###

- settings: 1 μM dose; linear regression
measured-metric: Depletion rate, slope, first-order kinetics (ln[nmol]/min/mg protein)
Form entry: value (ln[nmol]/min/mg protein) — number only.

Known Depletion rate, slope, first-order kinetics results, listed for orientation:
{"molecule": "CC(C)(C)c1ccc(OP(=O)(Oc2ccccc2)Oc2ccccc2)cc1 [4tBPDPP, 4-tert-butylphenyl diphenyl phosphate]", "value-unit": "ln[nmol]/min/mg protein", "assay-value": "−0.013"}
{"molecule": "CC(C)c1ccc(OP(=O)(Oc2ccccc2)Oc2ccccc2)cc1 [4IPPDPP, 4-isopropylphenyl diphenyl phosphate]", "value-unit": "ln[nmol]/min/mg protein", "assay-value": "−0.015"}

Please find the next molecule below.
# input Tell me its Depletion rate, slope, first-order kinetics given CC(C)c1ccccc1OP(=O)(Oc1ccccc1)Oc1ccccc1 [2IPPDPP, 2-isopropylphenyl diphenyl phosphate] as the entry.
# output −0.010

###

# Percentage of Initial Parent Administration (Mean ± Std Dev): parent compound listing for each entry below
- settings: 10 μM; s9 & glucuronidase
Form entry: value (%) — number only.

Known Percentage of Initial Parent Administration (Mean ± Std Dev): parent compound results, listed for orientation:
{"compound": "CC(C)(C)c1ccc(OP(=O)(Oc2ccccc2)Oc2ccccc2)cc1 [4tBPDPP, 4-tert-butylphenyl diphenyl phosphate]", "assay-value": 72}
{"compound": "CC(C)c1ccc(OP(=O)(Oc2ccccc2)Oc2ccccc2)cc1 [4IPPDPP, 4-isopropylphenyl diphenyl phosphate]", "assay-value": 57}
{"compound": "CC(C)c1ccccc1OP(=O)(Oc1ccccc1)Oc1ccccc1 [2IPPDPP, 2-isopropylphenyl diphenyl phosphate]", "assay-value": 82}

# input Tell me its Percentage of Initial Parent Administration (Mean ± Std Dev): parent compound given O=P(Oc1ccccc1)(Oc1ccccc1)Oc1ccccc1 [TPHP, triphenyl phosphate, reference compound] as the entry.
# output 67

###

- settings: 1 μM; s9 & glucuronidase
# Percentage of Initial Parent Administration (Mean ± Std Dev): parent compound listing for each entry below
Form entry: value (%) — number only.

Known Percentage of Initial Parent Administration (Mean ± Std Dev): parent compound results, listed for orientation:
{"compound": "CC(C)(C)c1ccc(OP(=O)(Oc2ccccc2)Oc2ccccc2)cc1 [4tBPDPP, 4-tert-butylphenyl diphenyl phosphate]", "assay-value": 56}
{"compound": "O=P(Oc1ccccc1)(Oc1ccccc1)Oc1ccccc1 [TPHP, triphenyl phosphate, reference compound]", "assay-value": 31}
{"compound": "CC(C)c1ccccc1OP(=O)(Oc1ccccc1)Oc1ccccc1 [2IPPDPP, 2-isopropylphenyl diphenyl phosphate]", "assay-value": 65}

Please find the next compound below.
# input Tell me its Percentage of Initial Parent Administration (Mean ± Std Dev): parent compound given CC(C)c1ccc(OP(=O)(Oc2ccccc2)Oc2ccccc2)cc1 [4IPPDPP, 4-isopropylphenyl diphenyl phosphate] as the entry.
# output 27

###

- settings: 1 μM; Abiotic Control
# Percentage of Initial Parent Administration (Mean ± Std Dev): parent compound listing for each entry below
Form entry: value (%) — number only.

Known Percentage of Initial Parent Administration (Mean ± Std Dev): parent compound results, listed for orientation:
{"compound": "CC(C)c1ccc(OP(=O)(Oc2ccccc2)Oc2ccccc2)cc1 [4IPPDPP, 4-isopropylphenyl diphenyl phosphate]", "value-unit": "%", "assay-value": 108}
{"compound": "O=P(Oc1ccccc1)(Oc1ccccc1)Oc1ccccc1 [TPHP, triphenyl phosphate, reference compound]", "value-unit": "%", "assay-value": 94}
{"compound": "CC(C)c1ccccc1OP(=O)(Oc1ccccc1)Oc1ccccc1 [2IPPDPP, 2-isopropylphenyl diphenyl phosphate]", "value-unit": "%", "assay-value": 105}

Please find the next compound below.
# input Tell me its Percentage of Initial Parent Administration (Mean ± Std Dev): parent compound given CC(C)(C)c1ccc(OP(=O)(Oc2ccccc2)Oc2ccccc2)cc1 [4tBPDPP, 4-tert-butylphenyl diphenyl phosphate] as the entry.
# output 84

All figures here come from paper PMC7508416.
